Reported self-aminoacylation values follow for various sequences
- System: biotinyl-Trp-oxazolone
- assay-name: self-aminoacylation, catalytic enhancement (BWO) (fold over background); higher = more active; k-Seq, kA / k0A0; sequences stand for … in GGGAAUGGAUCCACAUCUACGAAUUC…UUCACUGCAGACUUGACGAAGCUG
Variants at the floor of the assay were thinned out.

residue-codes: CUACGUCAUACAAUCGGUCUG [Fam1A.1 aminoacylation ribozyme variant]
self-aminoacylation: 0.994
//
residue-codes: AUUAUCCUGGUGAUCGAGUGA [Fam2.1 aminoacylation ribozyme variant]
self-aminoacylation: 9.06
//
residue-codes: AAGUAUGCUAAUAGUCUCAAG [Fam3.1 aminoacylation ribozyme variant]
self-aminoacylation: 2.69
//
residue-codes: CCACACUUGAAGCAAUAGGUC [Fam1B.1 aminoacylation ribozyme variant]
self-aminoacylation: 0.438
//
residue-codes: AAGUCUGCUAAUAGUGGCAAG [Fam3.1 aminoacylation ribozyme variant]
self-aminoacylation: 1.17
//
residue-codes: UCACACUUCAAGCAAUCGGCC [Fam1B.1 aminoacylation ribozyme variant]
self-aminoacylation: 4
//
residue-codes: CUAGUUCAAACAAUCGGUCGG [Fam1A.1 aminoacylation ribozyme variant]
self-aminoacylation: 2.94
//
residue-codes: AUUACCCUGGACUUCGAGUGA [Fam2.1 aminoacylation ribozyme variant]
self-aminoacylation: 4.38
//
residue-codes: AUUACACCGGUCAUCGAGUGA [Fam2.1 aminoacylation ribozyme variant]
self-aminoacylation: 5.95
//
residue-codes: AUUCACCUGGGUCACCGGGUG [Fam2.2 aminoacylation ribozyme variant]
self-aminoacylation: 5.36
//
residue-codes: CUUCACCUAGGUCAUGGGGUG [Fam2.2 aminoacylation ribozyme variant]
self-aminoacylation: 3.7
//
residue-codes: CAACACUACAAGCAAUCGGUC [Fam1B.1 aminoacylation ribozyme variant]
self-aminoacylation: 0.713
//
residue-codes: AUUACCCUGCGCAUCGAGUGA [Fam2.1 aminoacylation ribozyme variant]
self-aminoacylation: 6.75
//
residue-codes: CUACUUCAAACAAGUGGUCUG [Fam1A.1 aminoacylation ribozyme variant]
self-aminoacylation: 0.516
//
residue-codes: CCACACUUUCAGCAAUCGGUC [Fam1B.1 aminoacylation ribozyme variant]
self-aminoacylation: 0.664
//
residue-codes: AUGCACCUAGGUUAUCGGGUG [Fam2.2 aminoacylation ribozyme variant]
self-aminoacylation: 4.81
//
residue-codes: CUACUUCAUACAAUCGGUGUG [Fam1A.1 aminoacylation ribozyme variant]
self-aminoacylation: 0.545
//
residue-codes: AUACUUCAAUCAAUCGGUCUG [Fam1A.1 aminoacylation ribozyme variant]
self-aminoacylation: 6.62
//
residue-codes: CCACACUUCAAUCAAUCGGUC [Fam1B.1 aminoacylation ribozyme variant]
self-aminoacylation: 21.8
//
residue-codes: AUUCACAUAGGUCAUCGGGAG [Fam2.2 aminoacylation ribozyme variant]
self-aminoacylation: 1.76
//
residue-codes: AAGUUUGCUACUUGUCGCAAG [Fam3.1 aminoacylation ribozyme variant]
self-aminoacylation: 1.21
//
residue-codes: AUUUACUUAGGUCAUCGGGUG [Fam2.2 aminoacylation ribozyme variant]
self-aminoacylation: 4.45
//
residue-codes: AUUACCCUGGUCAUGGGGUGA [Fam2.1 aminoacylation ribozyme variant]
self-aminoacylation: 9.45
//
residue-codes: CCACACUUCAUGCAAUAGGUC [Fam1B.1 aminoacylation ribozyme variant]
self-aminoacylation: 0.467
//
residue-codes: UUUACCCAGGUCAUCGAGUGA [Fam2.1 aminoacylation ribozyme variant]
self-aminoacylation: 6
//
residue-codes: AAGUUUGCUGAUAGUCGCCAG [Fam3.1 aminoacylation ribozyme variant]
self-aminoacylation: 1.44
//
residue-codes: CUUACCCUUGUCAUCGAGUGA [Fam2.1 aminoacylation ribozyme variant]
self-aminoacylation: 5.14
//
residue-codes: CCACUCCAAACAAUCGGUCUG [Fam1A.1 aminoacylation ribozyme variant]
self-aminoacylation: 3.48
//
residue-codes: CCGCAGUUCAAGCAAUCGGUC [Fam1B.1 aminoacylation ribozyme variant]
self-aminoacylation: 6.86
//
residue-codes: CUGCUCCAAACAAUCGGUCUG [Fam1A.1 aminoacylation ribozyme variant]
self-aminoacylation: 20.3
//
residue-codes: AUUACCCUGGUCCUCGUGUGA [Fam2.1 aminoacylation ribozyme variant]
self-aminoacylation: 2.73
//
residue-codes: AUUACCCUGGUUAUCGAGUGU [Fam2.1 aminoacylation ribozyme variant]
self-aminoacylation: 3.92
//
residue-codes: AUUAACCUGCUCAUCGAGUGA [Fam2.1 aminoacylation ribozyme variant]
self-aminoacylation: 2.54
//
residue-codes: AACUUUGCUAAUGGUCGCAAG [Fam3.1 aminoacylation ribozyme variant]
self-aminoacylation: 3.24
//
residue-codes: ACAGACUUCAAGCAAUCGGUC [Fam1B.1 aminoacylation ribozyme variant]
self-aminoacylation: 38.2
